Experiment: Solubility of crystal form I in different solvents (visual, room temperature)
Type: physicochemical
Conditions: organic solvent or mixture, thermodynamic from solid, MTBE
PROPERTY LABEL: solubility

Cc1ccc(-c2ncccn2)c(C(=O)N2C3CCC2[C@@H](COc2ccc(F)cn2)CC3)c1 (stereo partly shown) [crystal form I] | < 1 mg/mL

* * *

Molecular target: hOX1R (Homo sapiens)
Sequence (O43613 whole entry): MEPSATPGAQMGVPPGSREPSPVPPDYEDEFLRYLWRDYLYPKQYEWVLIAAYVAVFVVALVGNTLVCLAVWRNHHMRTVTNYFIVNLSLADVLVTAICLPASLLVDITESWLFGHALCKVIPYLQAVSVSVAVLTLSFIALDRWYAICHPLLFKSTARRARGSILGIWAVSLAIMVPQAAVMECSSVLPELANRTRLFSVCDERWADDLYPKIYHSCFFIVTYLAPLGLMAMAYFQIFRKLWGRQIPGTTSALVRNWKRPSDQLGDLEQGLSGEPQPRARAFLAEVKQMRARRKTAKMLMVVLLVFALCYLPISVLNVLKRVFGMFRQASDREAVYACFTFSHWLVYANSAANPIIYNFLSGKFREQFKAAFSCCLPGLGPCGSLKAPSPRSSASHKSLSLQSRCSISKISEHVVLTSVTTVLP
Assay: In vitro test of OX1R: calcium signal change in HEK293-OX1 cells detected with FLIPR
pIC50: −log10 of the molar value.
PROPERTY LABEL: pIC50

Cc1ccc(-c2ncccn2)c(C(=O)N2C3CCC2[C@@H](COc2ccc(F)cn2)CC3)c1 (stereo partly shown) [Compound 5-3] | > 7.30

* * *

Assay: Solubility of crystal form I in different solvents (visual, room temperature)
Format: physicochemical
Settings: organic solvent or mixture, thermodynamic from solid, 1,4-dioxane
PROPERTY LABEL: solubility

Cc1ccc(-c2ncccn2)c(C(=O)N2C3CCC2[C@@H](COc2ccc(F)cn2)CC3)c1 (stereo partly shown) [crystal form I] | > 57 mg/mL

* * *

Assay: Solubility of crystal form I in different solvents (visual, room temperature)
Format: physicochemical
Settings: organic solvent or mixture, thermodynamic from solid, MeOH
PROPERTY LABEL: solubility

Cc1ccc(-c2ncccn2)c(C(=O)N2C3CCC2[C@@H](COc2ccc(F)cn2)CC3)c1 (stereo partly shown) [crystal form I] | > 53 mg/mL

* * *

Assay: Solubility of crystal form I in different solvents (visual, room temperature)
Assay type: physicochemical
Conditions: organic solvent or mixture, thermodynamic from solid, n-butanol
Description: Solubility Study of crystal form I of compound 5-3:1-1.5 mg of crystal form I of compound 5-3 was added to a flask at room temperature, a single organic solvent or a mixed solvent was added in small quantities and many times until the visual solution was clear or no solid particles were present, determined the solubility of crystal form I in different solvents, the results were shown in Table 2.
PROPERTY LABEL: solubility

Cc1ccc(-c2ncccn2)c(C(=O)N2C3CCC2[C@@H](COc2ccc(F)cn2)CC3)c1 (stereo partly shown) [crystal form I] | 22 to 55 mg/mL

* * *

Experiment: Solubility of crystal form I in different solvents (visual, room temperature)
Type: physicochemical
Conditions: organic solvent or mixture, thermodynamic from solid, EtOAc
PROPERTY LABEL: solubility

Cc1ccc(-c2ncccn2)c(C(=O)N2C3CCC2[C@@H](COc2ccc(F)cn2)CC3)c1 (stereo partly shown) [crystal form I] | 19 to 48 mg/mL

* * *

Assay: Solubility of crystal form II in different aqueous media (37° C., 24 hours, HPLC)
Type: physicochemical
Conditions: pH 6.65, fassif, thermodynamic from solid, Simulated fasting intestinal fluid
PROPERTY LABEL: solubility at 24 h (µg/mL)

Cc1ccc(-c2ncccn2)c(C(=O)N2C3CCC2[C@@H](COc2ccc(F)cn2)CC3)c1 (stereo partly shown) [crystal form II] | 180

* * *

Assay: Solubility of crystal form II in different aqueous media (37° C., 24 hours, HPLC)
Assay type: physicochemical
Settings: pH 0.8, simulated gastric fluid, thermodynamic from solid, 0.1N HCl
PROPERTY LABEL: solubility at 24 h

Cc1ccc(-c2ncccn2)c(C(=O)N2C3CCC2[C@@H](COc2ccc(F)cn2)CC3)c1 (stereo partly shown) [crystal form II] | 420 µg/mL

* * *

Test: Solubility of crystal form I in different solvents (visual, room temperature)
Format: physicochemical
Details: organic solvent or mixture, thermodynamic from solid, MeOH—H2O (3:1)
PROPERTY LABEL: solubility

Cc1ccc(-c2ncccn2)c(C(=O)N2C3CCC2[C@@H](COc2ccc(F)cn2)CC3)c1 (stereo partly shown) [crystal form I] | 18 to 46 mg/mL
